Target: Disintegrin and metalloproteinase domain-containing protein 17 (Homo sapiens)
Sequence (P78536 whole entry, the tested form may be a part): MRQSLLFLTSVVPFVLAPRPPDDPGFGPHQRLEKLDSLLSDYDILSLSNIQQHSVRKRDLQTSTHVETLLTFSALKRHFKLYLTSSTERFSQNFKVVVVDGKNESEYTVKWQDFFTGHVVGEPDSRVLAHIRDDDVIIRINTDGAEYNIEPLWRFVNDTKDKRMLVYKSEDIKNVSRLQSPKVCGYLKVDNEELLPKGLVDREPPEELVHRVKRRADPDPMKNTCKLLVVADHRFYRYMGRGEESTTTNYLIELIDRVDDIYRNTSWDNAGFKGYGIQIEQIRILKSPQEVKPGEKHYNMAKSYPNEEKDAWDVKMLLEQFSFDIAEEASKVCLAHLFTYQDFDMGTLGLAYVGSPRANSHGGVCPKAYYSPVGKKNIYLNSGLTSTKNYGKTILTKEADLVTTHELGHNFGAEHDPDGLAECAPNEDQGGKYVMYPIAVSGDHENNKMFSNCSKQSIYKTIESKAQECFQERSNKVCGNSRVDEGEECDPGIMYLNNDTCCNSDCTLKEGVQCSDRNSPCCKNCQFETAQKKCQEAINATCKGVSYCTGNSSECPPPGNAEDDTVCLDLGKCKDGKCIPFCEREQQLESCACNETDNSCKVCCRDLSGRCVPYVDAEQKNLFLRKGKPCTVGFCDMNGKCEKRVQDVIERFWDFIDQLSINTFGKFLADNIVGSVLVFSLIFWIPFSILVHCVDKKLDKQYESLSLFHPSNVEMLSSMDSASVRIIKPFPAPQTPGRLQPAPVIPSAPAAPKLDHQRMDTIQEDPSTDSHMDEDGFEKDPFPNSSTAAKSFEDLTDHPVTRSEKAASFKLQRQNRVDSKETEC
Assay: Inhibition of human TACE by fluorescent spectroscopy
Reported IC50 values for the following molecules.
readout: IC50 (nM)

• Cc1ccc2oc(=O)c(CC(CCc3cccc(OCCN4CCCCC4)c3)C(=O)NO)cc2c1 (stereo not drawn) = 0.9
• Cc1ccc2oc(=O)c(CC(CCCc3cccc(OCCN4CCCCC4)c3)C(=O)NO)cc2c1 (stereo not drawn) = 0.27
• Cc1ccc2oc(=O)c(CC(CCc3ccc(OCCN4CCCCC4)cc3)C(=O)NO)cc2c1 (stereo not drawn) = 1.04

###

Test: Oral bioavailability in Sprague-Dawley rat at 30 mg/kg, po
Assay type: ADME, organism-based
Conditions: in vivo
readout: bioavailability

* CCN(CC)CCOc1ccc(CCC(Cc2cc3ccc(C)cc3oc2=O)C(=O)NO)cc1 (stereo unspecified) | 41.6%
